Provenance of the data: PubChem BioAssay (NCI)

System: SK-MEL-5 melanoma
experiment: NCI-60 one-dose screen, 48 h (100 = growth as untreated, 0 = no growth, -100 = all killed)
particulars: 10 µM unless noted
Compounds without any hit were thinned out: in the full panel of roughly 83,000, 20% have a hit.
Known growth of a selection of compounds
observable: growth (%)

CS(=O)c1nccc(-c2c(-c3ccc(F)c(OCCc4ccccc4)c3)nc3sccn23)n1 (stereo unspecified) = 100
NNC(=O)c1sc2nc(-c3cnccn3)cc(-c3cccs3)c2c1N = 97.2
C/C=C/C=C1\C[C@H]2CO[C@H](O2)C1=O = 98.5
Cc1csc(Nc2cccc(Nc3nc(C)cs3)c2)n1 = 44.9
O=c1[nH]c(CCl)nc2c1cnn2-c1ccccc1 = 99
COc1cc(C(=O)C[n+]2ccc3ccccc3c2)cc(OC)c1OC = 99.8

---

Tested on: SF-295 CNS
experiment: NCI-60 one-dose screen, 48 h (100 = growth as untreated, 0 = no growth, -100 = all killed)
particulars: 10 µM unless noted
Compounds without any hit were thinned out: in the full panel of roughly 83,000, 20% have a hit.
observable: growth (%)

Oc1ccc(CSc2nnc(-c3cnccn3)n2-c2ccccc2)c2cccnc12 = 7.13
C#CCOc1ccc(C(Nc2ccc(OC)cc2)c2nnnn2C2CCCCC2)cc1 (centres undefined) = 100
COc1cc2c3c(n(CCCNC4CCC4)c(=O)c2cc1OC)-c1cc2c(cc1C3=O)OCO2 = 20.4
COc1cc(-c2nc(SCc3ccc(C)cc3)[nH]c(=O)c2C#N)ccc1OCc1ccccc1 = 106
O=C(c1cccc(F)c1)n1ccc2cc(NC(=S)Nc3cccnc3)ccc21 = 97.3
O=C(NCCCNc1cc(-c2cn(-c3ccccc3)nc2-c2cccc(O)c2)ccn1)Nc1cccc(C(F)(F)F)c1 = -15.3
O=C(NNc1nc2cc(F)c(F)cc2n2cccc12)c1cccnn1 = 8.56
NCCN1CCN(c2nc(-c3ccccc3)nc3nc(-c4ccccc4)oc23)CC1 = -83.6
C#C[C@]1(O)CC[C@H]2[C@@H]3CC=C4c5sc(-c6ccccn6)nc5CC[C@]4(C)[C@H]3CC[C@@]21C = -37.3
CN(C)C(=O)c1ccccc1-n1cnc2ccccc2c1=O = 103
CCOC(=O)Nc1ccc(-c2nc(-c3cccc(O)c3)c(-c3ccnc(Br)c3)[nH]2)cc1 = -14
Cc1ccc(NC(=O)c2cc(/C=C/C(=O)NO)cc(C(F)(F)F)c2)cc1Nc1nccc(-c2cccnc2)n1 = -4.95
O=C1CC2(CCOCC2)Oc2ncccc21 = 109
C/C(=C(/c1ccc(O)cc1)c1ccc(OCCN(C)C)cc1)c1ccc(Cl)cc1 = 80.9
O=C1[C@H]2Cc3c([nH]c4ccccc34)[C@@H](c3ccc(Cl)cc3)N2C(=O)CN1C1CCN(Cc2c(Cl)cccc2Cl)CC1 = 73
CC(C)=CCc1c2c(c(O)c3c1O[C@]14C(=C[C@@H]5C[C@H]1C(C)(C)O[C@@]4(C/C=C(/C)C(=O)O)C5=O)C3=O)CC(O)C(C)(C)O2 (some centres undefined) = -48.5
Cn1c(SC(C(=O)Nc2ccc(F)cc2)c2ccccc2)nc2ccccc2c1=O (centres undefined) = 98.2
NC(=O)C(=Cc1ccc(Cl)cc1)C(N)=O = 71.9
N/C(=N\c1nc2ccc([N+](=O)[O-])cc2s1)C(Cl)(Cl)Cl = 19.6
